- testedOn: T1, M4
- T1 construct: also called PD1 mutant M4
- experimentalDetails: scFv-phage ELISA
measureName: OD490
Just the number, please.

The examples below pair each entry with its known result.
- binder: "PD1-42G4 (antibody, V domains shown, scFv-phage in the screening ELISA; later whole IgG) VH: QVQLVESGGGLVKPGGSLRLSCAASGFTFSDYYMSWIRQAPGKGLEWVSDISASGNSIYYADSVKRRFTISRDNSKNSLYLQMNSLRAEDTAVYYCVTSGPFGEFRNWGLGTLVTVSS VL: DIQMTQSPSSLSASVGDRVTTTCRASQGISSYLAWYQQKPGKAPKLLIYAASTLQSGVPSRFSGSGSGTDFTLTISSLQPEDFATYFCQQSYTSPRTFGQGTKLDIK"
  OD490: 1.9
- binder: "PD1-32A6 (antibody, V domains shown, scFv-phage in the screening ELISA; later whole IgG) VH: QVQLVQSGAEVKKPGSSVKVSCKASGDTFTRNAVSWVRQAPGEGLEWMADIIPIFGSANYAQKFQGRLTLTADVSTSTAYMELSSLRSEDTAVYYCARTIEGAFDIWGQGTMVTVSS VL: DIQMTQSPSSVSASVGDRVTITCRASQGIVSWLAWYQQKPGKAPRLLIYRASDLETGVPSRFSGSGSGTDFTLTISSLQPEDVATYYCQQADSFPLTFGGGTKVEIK"
  OD490: 2.4

Next binder, OD490 to be filled in.
Task: Requested field: OD490. Item: PD1-45F4 (antibody, V domains shown, scFv-phage in the screening ELISA; later whole IgG) VH: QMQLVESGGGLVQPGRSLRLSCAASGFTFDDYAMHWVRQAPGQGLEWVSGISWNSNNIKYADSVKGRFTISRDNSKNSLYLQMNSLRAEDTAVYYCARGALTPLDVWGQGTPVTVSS VL: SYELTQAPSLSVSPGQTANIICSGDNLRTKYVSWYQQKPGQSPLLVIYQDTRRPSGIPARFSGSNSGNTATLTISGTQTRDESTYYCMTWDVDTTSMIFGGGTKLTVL
Output: 2.7
